Where these numbers come from: ChEMBL document CHEMBL3774345

protocol_description: Cytotoxicity against human OVCAR8 cells assessed as cell growth at 10 uM after 24 hrs by SRB assay
Type: functional
assay_context: OVCAR-8, 24 h, read-out: Activity
readout_label: growth at 10 µM (%)
Your answer should be a plain number; it is taken to be in %.

Exercise: Give the reported growth at 10 µM for this molecule. "COCCCNc1nc(NC(=O)c2cc(Br)cc(C(F)(F)F)c2)cc(-c2cccnc2)n1"
Solution: 87.5

Exercise: Give the reported growth at 10 µM for this molecule. "O=C(Nc1cc(-c2cccnc2)nc(NCCCN2CCOCC2)n1)c1ccc(F)cc1Cl"
Solution: 94.2

Exercise: Give the reported growth at 10 µM for this molecule. "COc1cc(OC)cc(C(=O)Nc2cc(-c3cccnc3)nc(NCCCN3CCOCC3)n2)c1"
Solution: 91.8

Exercise: Give the reported growth at 10 µM for this molecule. "COCCCNc1nc(NC(=O)c2cc(OC)cc(OC)c2)cc(-c2cccnc2)n1"
Solution: 79.3

Exercise: Give the reported growth at 10 µM for this molecule. "COCCCNc1nc(NC(=O)c2ccc(Cl)cc2C)cc(-c2cccnc2)n1"
Solution: 94.2

Exercise: Give the reported growth at 10 µM for this molecule. "Cc1cc(Cl)ccc1C(=O)Nc1cc(-c2cccnc2)nc(NCCCN2CCOCC2)n1"
Solution: 96.9

Exercise: Give the reported growth at 10 µM for this molecule. "O=C(Nc1cc(-c2cccnc2)nc(NCCCN2CCOCC2)n1)c1cc(Br)cc(C(F)(F)F)c1"
Solution: 58.5
